# assayed target: T1, human GITR (amino acids M1-V241, NCBI Accession #NP_004186.1) expressed on cells (human, UniProt Q9Y5U5 26-241)
# T1 sequence: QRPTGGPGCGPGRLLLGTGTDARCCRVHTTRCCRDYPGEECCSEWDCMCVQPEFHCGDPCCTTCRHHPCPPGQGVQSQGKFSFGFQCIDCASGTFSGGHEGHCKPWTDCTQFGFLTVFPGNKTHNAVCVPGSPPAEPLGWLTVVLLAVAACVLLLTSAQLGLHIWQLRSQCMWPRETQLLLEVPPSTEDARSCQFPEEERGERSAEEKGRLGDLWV
# assay method text: cell-based or functional assay
Reported % Activation, NF-kB-Luc, non-anchored values follow for various binders
Express it in %; write the number only.

[
  {
    "binder": "H1H14486P (antibody, human IgG1, V domains shown, human IgG1 (H1H)) VH: QVQLVESGGGVVQPGRSLRLSCAASGFTFSNYGMHWVRQAPGKGLEWVAVIWYPGSNKFYTDSVEGRFTISRDNSKNTVYLQMDSLRAEDTAVYYCARGGALGVDYYYGMDVWGQGTTVTVSS VL: AIQMTQSPSSLSASVGDRVTLTCRASQGIRNDLGWYQQKPGKAPNFLIYSASSLQSGVPSRFSGSGSGTDFTLTISSLQPEDFATYYCLQNYNYPWTFGQGTKVEIK",
    "% Activation, NF-kB-Luc, non-anchored [%]": 30
  }
]

With those in mind, consider the next binder.
# input Report % Activation, NF-kB-Luc, non-anchored for H1H14474P (antibody, human IgG1, V domains shown, human IgG1 (H1H)) VH: QVQLVESGGGVVQPGRSLRLSCAASGFTFSSYGMDWVRQAPGKGLEWVAVIWYPGSNKYYADSVKGRFTVSRDNSKNTLYLQMNSLRAEDTAVYYCARDGELGLDYYSGMDVWGQGTTVTVSS VL: DIQMTQSPSSLSASVGDRVTITCRASQGIRNDLNWYQQKPGKAPKRLINGASSLQSGVPSRFSGSGSGTEFTLTISSLQPEDFATYYCLQLNSYPRTFGQGTKVEIK please.
# output 30
